test system: ACHN renal; assay: NCI tumour cell line growth inhibition, 384-well format; in the data active = GI50 below about 0.43 µM; inactive = the rest
Outcome codes: yes (1) (active), no (0) (inactive)

smiles | class_label
Cn1cnc2c(F)c(Nc3ccc(Br)cc3F)c(C(=O)NOCCO)cc21 | no (0)
C[C@@H](COCCC(=O)N1CCN(c2ncc(C(F)(F)F)cn2)CC1)Nc1cn[nH]c(=O)c1C(F)(F)F | no (0)
Cc1cc(C)c(S(=O)(=O)N(CCc2cccc(Br)c2)Cc2ccc(-c3cccc(S(C)(=O)=O)c3)cc2)c(C)c1 | no (0)
CC(C)C[C@H](NC(=O)[C@@H](NC(=O)c1cccc(-c2ccccc2)n1)[C@@H](C)O)B(O)O | yes (1)
